- Test system: velvetleaf
- Protocol: Test A preemergence
- Assay type: in vivo, Abutilon theophrasti
- Condition Context: 125 g ai/ha
Would you mind telling me the reported Velvetleaf plant response rating (0 to 100 scale) of each entry?

GET /value?item= `FC(F)c1cccc(Oc2ncc(Br)cn2)c1-n1cc(I)cn1` &field=Velvetleaf plant response rating (0 to 100 scale) returns 40

// Velvetleaf plant response rating (0 to 100 scale) value for `N#Cc1cnn(-c2c(C=O)cccc2Oc2ncc(Cl)cn2)c1` : 0

Lab note: `C=C(C)c1cccc(Oc2ncc(Cl)cn2)c1-n1cc(Br)cn1` gave Velvetleaf plant response rating (0 to 100 scale) of 40

Velvetleaf plant response rating (0 to 100 scale) reading for `Brc1cnn(-c2ccccc2Oc2ncccn2)c1` : 20

---

- System: large (Lg) crabgrass
- Protocol: Test E preemergence
- Format: in vivo, Digitaria sanguinalis
- Condition Context: 31 g ai/ha, scale 0 to 100 (0 no effect, 100 complete control)
Exercise: state measured Crabgrass, Large plant response rating for each of the compounds provided.
Respond numerically, and do not add a unit to the figure.

Entry N#Cc1cnn(-c2c(C#N)cccc2Oc2ncc(F)cn2)c1 [Compound 111] — recorded Crabgrass, Large plant response rating = 35

Field Crabgrass, Large plant response rating (entry FC(F)(F)c1cnn(-c2ccccc2Oc2ncc(Br)cn2)c1 [Compound 18] ) reads 0

For this compound ( N#Cc1cccc(Oc2ncc(Cl)cn2)c1-n1cc(C(F)(F)F)cn1 [Compound 58] ), measured Crabgrass, Large plant response rating is 100

---

I'd be grateful if you could share measured Plant response rating, Crabgrass, Large for these entries.
- Tested on: large (Lg) crabgrass
- Protocol: Test C postemergence
- Format: in vivo, Digitaria sanguinalis
- Condition Context: Postemergence, 62 g ai/ha; scale 0 to 100 (0 no effect, 100 complete control)
Just the number, please, no unit attached.

Record N#Cc1cccc(Oc2ncc(F)cn2)c1-n1cc(I)cn1 [Compound 86] . Reported Plant response rating, Crabgrass, Large: 5

Entry CCOc1cnn(-c2c(C#N)cccc2Oc2ncc(Cl)cn2)c1 [Compound 92] ; Plant response rating, Crabgrass, Large = 5

Value of Plant response rating, Crabgrass, Large reported for the molecule N#Cc1cn(-c2c(Br)cccc2Oc2ncc(Cl)cn2)nn1 [Compound 116] is 15

GET /value?item= Fc1cccc(Oc2ncc(Cl)cn2)c1-n1cc(C2CC2)nn1 [Compound 155] &field=Plant response rating, Crabgrass, Large returns 5

---

- Test system: ragweed
- Protocol: Test C postemergence
- Type: in vivo, Ambrosia elatior
- Condition Context: Postemergence, 62 g ai/ha; scale 0 to 100 (0 no effect, 100 complete control)
Exercise: state measured Plant response rating, Ragweed for each of the compounds provided.
// response body must contain only the number

Lookup result for `N#Cc1cccc(Oc2ncc(F)cn2)c1-n1cc(Br)cn1` ; measured Plant response rating, Ragweed: 40

Reported Plant response rating, Ragweed of `N#Cc1cnn(-c2c(C#N)cccc2Oc2ncc(F)cn2)c1` : 70

Entry `FCc1cn(-c2c(F)cccc2Oc2ncc(Cl)cn2)nn1` ; Plant response rating, Ragweed = 100

Reported Plant response rating, Ragweed ( `Clc1cnc(Oc2cccc(Br)c2-n2cc(Br)nn2)nc1` ) = 40

The value of Plant response rating, Ragweed measured for the compound `CCCOc1cnn(-c2c(C#N)cccc2Oc2ncc(Cl)cn2)c1` turned out to be 35

Query `FCc1cccc(Oc2ncc(Br)cn2)c1-n1cc(C(F)(F)F)cn1` yields Plant response rating, Ragweed of 25

---

- Tested on: pigweed
- Protocol: Test A preemergence
- Format: in vivo, Amaranthus retroflexus
- Condition Context: 125 g ai/ha, 0 to 100 scale where 0 is no effect and 100 is complete control
- Source text: […]
Recorded Endpoint: Plant response rating, Pigweed
Quick one: just the number, no unit, thanks!

Reading of Plant response rating, Pigweed for `CC(C)(C)c1cnn(-c2c(C#N)cccc2Oc2ncc(Cl)cn2)c1` with pigweed: 0

Value (Plant response rating, Pigweed, pigweed) for record `Brc1cnc(Oc2ccccc2-n2cc(Br)c(Br)n2)nc1` = 0

Entry `CCOc1cnn(-c2c(C#N)cccc2Oc2ncc(F)cn2)c1` ; assay system pigweed; Plant response rating, Pigweed recorded at 90

// returns Plant response rating, Pigweed for `N#Cc1cccc(Oc2ncc(Cl)cn2)c1-n1cc(OCC(F)F)cn1` with pigweed; value = 100

---

Provide the recorded Plant response rating, Morningglory for the entries that follow.
- Test system: morningglory
- Protocol: Test C postemergence
- Type: in vivo, Ipomoea coccinea
- Condition Context: Postemergence, 62 g ai/ha; scale 0 to 100 (0 no effect, 100 complete control)

So, `CCOc1cn(-c2c(Br)cccc2Oc2ncc(Cl)cn2)nn1` ? Its Plant response rating, Morningglory was 85

Plant response rating, Morningglory reported for this molecule `Clc1cnc(Oc2cccc(Br)c2-n2cc(Br)nn2)nc1` : 80

Plant response rating, Morningglory reported for this molecule `N#Cc1cccc(Oc2ncc(F)cn2)c1-n1cc(I)cn1` : 85

Summary for this molecule, `CCOc1cnn(-c2c(C#N)cccc2Oc2ncc(F)cn2)c1` : Plant response rating, Morningglory is 55

The molecule listed as `FC(F)(F)c1cnn(-c2c(Cl)cccc2Oc2ncc(Cl)cn2)c1` has a reported Plant response rating, Morningglory of 98

---

- Tested on: corn
- Protocol: Test A postemergence
- Assay type: in vivo, Zea mays
- Condition Context: 125 g ai/ha, 0 to 100 scale where 0 is no effect and 100 is complete control
I'd be grateful if you could share measured Corn plant response rating for these entries.
The answer should be a number; do not append a unit.

Quick note, Corn plant response rating for `FC(F)(F)c1cnn(-c2c(Cl)cccc2Oc2ncc(Br)cn2)c1` landed at 20

Sure, the documented Corn plant response rating for `C=C(C)c1cccc(Oc2ncc(Cl)cn2)c1-n1cc(Br)cn1` is 20

Entry under test: `FC(F)c1cccc(Oc2ncc(Br)cn2)c1-n1cc(Br)cn1` . Its Corn plant response rating was 20

---

- System: waterhemp
- Protocol: Test C preemergence
- Format: in vivo, Amaranthus rudis
- Condition Context: 16 g ai/ha, preemergence; scale 0 to 100 (0 no effect, 100 complete control)
Exercise: state measured Waterhemp plant response rating for each of the compounds provided.

Looking up N#Cc1cnn(-c2c(CF)cccc2Oc2ncc(F)cn2)c1 [Compound 151] , I see its Waterhemp plant response rating listed as 95

Noted for N#Cc1cccc(Oc2ncc(Br)cn2)c1-n1cc(I)cn1 [Compound 88] : its Waterhemp plant response rating reads 98

Quick note, Waterhemp plant response rating for FC(F)(F)c1cnn(-c2c(Cl)cccc2Oc2ncc(Cl)cn2)c1 [Compound 167] landed at 100

---

- Test system: sedge, umbrella
- Protocol: Test B flooded paddy test
- Format: in vivo, Cyperus difformis
- Condition Context: Flood, 250 g ai/ha; 0 to 100 scale where 0 is no effect and 100 is complete control
Recorded Endpoint: Plant response rating, Sedge, Umbrella
The answer should be a number; do not append a unit.

Plant response rating, Sedge, Umbrella in this record for `O=Cc1cccc(Oc2ncc(Cl)cn2)c1-n1cc(Br)cn1` : 0

Plant response rating, Sedge, Umbrella in this record for `CNN=Cc1cccc(Oc2ncc(Cl)cn2)c1-n1cc(Br)cn1` : 0

Entry under test: `CC(=NO)c1cn(-c2c(Br)cccc2Oc2ncc(Cl)cn2)nn1` . Its Plant response rating, Sedge, Umbrella was 20

The molecule listed as `FC(F)(F)c1cccc(Oc2ncc(Cl)cn2)c1-n1cc(Br)cn1` shows Plant response rating, Sedge, Umbrella equal to 80

The molecule listed as `Fc1cnc(Oc2ccccc2-n2cc(Cl)cn2)nc1` has a reported Plant response rating, Sedge, Umbrella of 0

What the record says about `COc1cnn(-c2c(F)cccc2Oc2ncc(Cl)cn2)c1` : Plant response rating, Sedge, Umbrella is 0

Looking up `FCc1cccc(Oc2ncc(Cl)cn2)c1-n1cc(C(F)(F)F)cn1` , I see its Plant response rating, Sedge, Umbrella listed as 95

Plant response rating, Sedge, Umbrella for `N#Cc1cccc(Oc2ncc(F)cn2)c1-n1cc(I)cn1` is 65

Plant response rating, Sedge, Umbrella reported for this molecule `FCc1cccc(Oc2ncc(F)cn2)c1-n1cc(C(F)(F)F)cn1` : 95

Measured Plant response rating, Sedge, Umbrella, `CCCc1cnc(Oc2cccc(C#N)c2-n2cc(Br)cn2)nc1` : 0

The recorded Plant response rating, Sedge, Umbrella for `NC(=O)c1cccc(Oc2ncc(Cl)cn2)c1-n1cc(C(F)(F)F)cn1` is 0

Briefly, Plant response rating, Sedge, Umbrella measured for `Cc1ccc(Oc2ncc(Cl)cn2)c(-n2cc(Br)cn2)c1` : 80

The molecule `N#Cc1cccc(Oc2ncc(I)cn2)c1-n1cc(Cl)cn1` showed Plant response rating, Sedge, Umbrella equal to 50

The molecule listed as `O=Cc1cccc(Oc2ncc(F)cn2)c1-n1cc(C(F)(F)F)cn1` has a reported Plant response rating, Sedge, Umbrella of 40

# molecule `FCc1cccc(Oc2ncc(Br)cn2)c1-n1cc(C(F)(F)F)cn1` ; its Plant response rating, Sedge, Umbrella = 95

Note to self: Plant response rating, Sedge, Umbrella recorded for `N#Cc1cccc(Oc2ncc(F)cn2)c1-n1cc(Br)cn1` was 80

// Plant response rating, Sedge, Umbrella value for `N#Cc1ccc(Oc2ncc(Cl)cn2)c(-n2cc(Br)cn2)c1` : 70

Input `N#Cc1cnn(-c2c(Oc3ncc(Cl)cn3)cccc2C(F)F)c1` . Output Plant response rating, Sedge, Umbrella: 100

For reference, reported Plant response rating, Sedge, Umbrella for `COc1cnc(Oc2cccc(C#N)c2-n2cc(Br)cn2)nc1` stands at 40

# Plant response rating, Sedge, Umbrella (molecule: `N#Cc1cccc(Oc2ncc(Br)cn2)c1-n1cc(I)cn1` ) is 0

The molecule identified as `N#Cc1cc(F)cc(Oc2ncc(Br)cn2)c1-n1cc(Br)cn1` registered its Plant response rating, Sedge, Umbrella at 70
